Target: Myo19-3IQ (Homo sapiens, UniProt Q96H55)
Sequence (Q96H55 whole entry, looked up): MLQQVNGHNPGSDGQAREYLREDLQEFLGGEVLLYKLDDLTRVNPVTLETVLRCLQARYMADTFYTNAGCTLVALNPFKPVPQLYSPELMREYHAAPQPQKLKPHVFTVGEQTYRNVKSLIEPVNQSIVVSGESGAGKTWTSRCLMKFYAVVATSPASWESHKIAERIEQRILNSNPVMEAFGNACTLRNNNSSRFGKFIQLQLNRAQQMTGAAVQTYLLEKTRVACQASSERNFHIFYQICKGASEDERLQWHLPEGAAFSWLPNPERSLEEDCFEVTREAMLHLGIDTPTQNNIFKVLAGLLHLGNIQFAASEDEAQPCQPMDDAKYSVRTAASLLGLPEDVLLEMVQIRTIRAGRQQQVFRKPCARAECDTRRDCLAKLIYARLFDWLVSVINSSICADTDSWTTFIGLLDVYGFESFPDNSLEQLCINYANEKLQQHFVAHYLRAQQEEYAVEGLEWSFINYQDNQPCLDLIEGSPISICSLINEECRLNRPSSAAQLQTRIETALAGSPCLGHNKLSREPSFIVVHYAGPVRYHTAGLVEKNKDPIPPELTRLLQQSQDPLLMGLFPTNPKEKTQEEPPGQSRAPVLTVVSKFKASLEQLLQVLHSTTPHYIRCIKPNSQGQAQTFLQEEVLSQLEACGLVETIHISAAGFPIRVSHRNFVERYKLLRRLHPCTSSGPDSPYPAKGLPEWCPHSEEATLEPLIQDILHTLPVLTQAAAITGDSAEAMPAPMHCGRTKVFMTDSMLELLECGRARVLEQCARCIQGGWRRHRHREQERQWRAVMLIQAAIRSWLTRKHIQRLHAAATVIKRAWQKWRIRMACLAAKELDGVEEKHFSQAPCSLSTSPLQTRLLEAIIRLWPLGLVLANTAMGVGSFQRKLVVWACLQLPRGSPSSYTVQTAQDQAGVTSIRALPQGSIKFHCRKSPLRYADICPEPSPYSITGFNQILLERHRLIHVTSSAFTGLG
Recorded metric: Kd

Query: # lookup: Kd of CNc1ccccc1C(=O)O[C@H]1C[C@H](n2cnc3c(N)ncnc32)O[C@@H]1COP(=O)(O)OP(=O)(O)OP(=O)(O)O
Result: ~0.04 µM
